# Measurement Target: Nicotinic Acetylcholine Receptor α4β2 (nAchRa4/b2) (Homo sapiens (Human), UniProt P17787+P43681)
# Sequence (P43681 29-627 limits assumed): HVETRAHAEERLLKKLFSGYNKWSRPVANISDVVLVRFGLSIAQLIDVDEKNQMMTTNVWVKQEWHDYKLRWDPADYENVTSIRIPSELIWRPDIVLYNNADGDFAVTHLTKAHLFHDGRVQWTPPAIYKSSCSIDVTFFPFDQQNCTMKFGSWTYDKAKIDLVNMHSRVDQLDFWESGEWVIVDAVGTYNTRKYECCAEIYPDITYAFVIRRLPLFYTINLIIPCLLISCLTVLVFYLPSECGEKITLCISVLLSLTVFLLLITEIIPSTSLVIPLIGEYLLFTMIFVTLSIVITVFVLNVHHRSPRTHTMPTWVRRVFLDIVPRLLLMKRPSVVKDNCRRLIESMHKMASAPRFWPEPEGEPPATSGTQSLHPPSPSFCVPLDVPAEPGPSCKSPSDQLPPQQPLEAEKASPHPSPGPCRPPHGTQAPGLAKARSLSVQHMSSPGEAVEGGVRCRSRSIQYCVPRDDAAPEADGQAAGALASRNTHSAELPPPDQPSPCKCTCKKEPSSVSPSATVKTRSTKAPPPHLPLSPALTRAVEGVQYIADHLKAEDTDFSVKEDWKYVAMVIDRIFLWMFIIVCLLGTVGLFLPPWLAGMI
# Sequence (P17787 26-502 limits assumed): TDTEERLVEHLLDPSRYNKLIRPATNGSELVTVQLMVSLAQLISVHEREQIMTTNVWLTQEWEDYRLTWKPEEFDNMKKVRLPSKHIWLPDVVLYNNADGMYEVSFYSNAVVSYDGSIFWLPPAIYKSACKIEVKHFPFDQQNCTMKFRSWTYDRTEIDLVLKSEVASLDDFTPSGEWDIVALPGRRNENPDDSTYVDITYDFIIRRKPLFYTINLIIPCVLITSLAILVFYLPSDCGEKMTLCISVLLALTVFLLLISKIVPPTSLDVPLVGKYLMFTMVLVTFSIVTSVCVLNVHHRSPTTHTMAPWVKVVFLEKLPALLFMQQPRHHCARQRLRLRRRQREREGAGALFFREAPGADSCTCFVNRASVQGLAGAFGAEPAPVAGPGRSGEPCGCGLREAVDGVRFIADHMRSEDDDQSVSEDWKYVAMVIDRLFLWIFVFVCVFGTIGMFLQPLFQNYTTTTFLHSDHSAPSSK
# Test Name: Nicotinic acetylcholine receptor α4β2 ion channel blocking assay
# Method: Cell lines were expanded from freezer stocks according to standard procedures. […] Compound activity was measured on a FLIPRTetra(MDS) and analyzed using CBIS data analysis suite (ChemInnovation, CA). Percentage inhibition was calculated using the following formula: % Inhibition=100%×(1−(mean RLU of test sample−mean RLU of vehicle control)/(mean RLU of EC80 control−mean RLU of vehicle control)).
Listed here: items and their measured pIC50.
pIC50 field: float, defined as -log10 of concentration (mol/L).

Some molecules with known pIC50 results, for comparison:
{"columns": ["Molecule", "pIC50"],
 "data": [
  ["CN[C@H](C)Cc1ccc2occc2c1", 5.37],
  ["CC[C@H](Cc1ccc2occc2c1)NC (stereo in doubt)", 5.20],
  ["CC[C@@H](Cc1ccc2occc2c1)NC (stereo in doubt)", 5.00]
]}

Then this molecule:
What pIC50 value was documented for this molecule, CN[C@H](C)Cc1ccc2ccoc2c1 ?
5.13

###

Listed here: items and their measured Hill Coef..
# Measurement Target: 5-HT1BR (Homo sapiens (Human), UniProt P28222)
# Test Name: 5-HT1BR cAMP secondary messenger agonist assay (HitHunter, CHO-K1)
# Type: cell-based
Where a name gives a salt, the structure may show the parent alone.

Some compounds with known Hill Coef. results, for comparison:
{"columns": ["Compound", "Hill Coef."],
 "data": [
  ["CNC(C)C(=O)c1ccc2ccoc2c1 (racemic) [rac-BK-6-MAPB, hydrochloride]", 0.99],
  ["CNC(C)C(=O)c1ccc2occc2c1 (single isomer, unassigned; (-)) [(−)-BK-5-MAPB]", 1.5],
  ["CN[C@H](C)Cc1ccc2occc2c1 [Compound R-5-MAPB]", 1.13],
  ["CNC(C)C(=O)c1ccc2ccoc2c1 (single isomer, unassigned; (-)) [(−)-BK-6-MAPB]", 0.8339],
  ["CN[C@@H](C)Cc1ccc2occc2c1 [Compound S-5-MAPB]", 1.08],
  ["CN[C@H](C)Cc1ccc2ccoc2c1 [Compound R-6-MAPB]", 1.14]
]}

What Hill Coef. value was documented for this compound, CN[C@@H](C)Cc1ccc2ccoc2c1 [Compound S-6-MAPB] ?
1.21

What do you get for CCC(NC)C(=O)c1ccc2ccoc2c1 (single isomer, unassigned; (-)) [(−)-BK-6-MBPB] ?
1.9551

###

# Measurement Target: SERT (Homo sapiens (Human), UniProt P31645)
# Test Name: hSERT release assay in CHO cells ([3H]serotonin)
# Conditions Used: EC50 SERT (Mean ± SEM, nM), CHO cells expressing hSERT
Assay Metric: EC50 (nM)
Numbers only; they are read as nM.

{"columns": ["Compound", "Assay Metric", "Result Units", "Measurement"],
 "data": [
  ["CN[C@@H](C)Cc1ccc2occc2c1 [Compound S-5-MAPB]", "EC50", "nM", 67],
  ["CN[C@@H](C)Cc1ccc2occc2c1 [75% S-5-MAPB]", "EC50", "nM", 80]
]}

What EC50 value was documented for this compound, CN[C@H](C)Cc1ccc2occc2c1 [Compound R-5-MAPB] ?
184

What do you get for CN[C@H](C)Cc1ccc2occc2c1 [75% R-5-MAPB] ?
122

###

# Measurement Target: human 5-HT transporter (hSERT) (Homo sapiens (Human))
# Test Name: Human serotonin transporter  assay ([3H]imipramine radioligand, CHO cells)
# Format: binding
# Conditions Used: SERT Ki (μM), Cheng Prusoff equation
Listed here: items and their measured Ki.
Numbers only; they are read as µM.

{"columns": ["Molecule", "Ki (µM)"],
 "data": [
  ["CNC(C)C(=O)c1ccc2ccoc2c1 (single isomer, unassigned; (-)) [(−)-BK-6-MAPB]", 5.4]
]}

What Ki value was documented for this molecule, CCC(NC)C(=O)c1ccc2ccoc2c1 (single isomer, unassigned; (+)) [(+)-BK-6-MBPB] ?
13

What do you get for CCC(NC)C(=O)c1ccc2occc2c1 (single isomer, unassigned; (+)) [(+)-BK-5-MBPB] ?
3

What do you get for CNC(C)C(=O)c1ccc2occc2c1 (single isomer, unassigned; (-)) [(−)-BK-5-MAPB] ?
3.2

What do you get for CCC(NC)C(=O)c1ccc2occc2c1 (single isomer, unassigned; (-)) [(−)-BK-5-MBPB] ?
0.72

What do you get for CNC(C)C(=O)c1ccc2occc2c1 (single isomer, unassigned; (+)) [(+)-BK-5-MAPB] ?
17

What do you get for CCC(NC)C(=O)c1ccc2ccoc2c1 (single isomer, unassigned; (-)) [(−)-BK-6-MBPB] ?
1.7

###

Lab note: pIC50 readings collected with MAO-A (Homo sapiens (Human)) for the following compounds.
Sequence (P21397 whole entry, looked up, species assumed): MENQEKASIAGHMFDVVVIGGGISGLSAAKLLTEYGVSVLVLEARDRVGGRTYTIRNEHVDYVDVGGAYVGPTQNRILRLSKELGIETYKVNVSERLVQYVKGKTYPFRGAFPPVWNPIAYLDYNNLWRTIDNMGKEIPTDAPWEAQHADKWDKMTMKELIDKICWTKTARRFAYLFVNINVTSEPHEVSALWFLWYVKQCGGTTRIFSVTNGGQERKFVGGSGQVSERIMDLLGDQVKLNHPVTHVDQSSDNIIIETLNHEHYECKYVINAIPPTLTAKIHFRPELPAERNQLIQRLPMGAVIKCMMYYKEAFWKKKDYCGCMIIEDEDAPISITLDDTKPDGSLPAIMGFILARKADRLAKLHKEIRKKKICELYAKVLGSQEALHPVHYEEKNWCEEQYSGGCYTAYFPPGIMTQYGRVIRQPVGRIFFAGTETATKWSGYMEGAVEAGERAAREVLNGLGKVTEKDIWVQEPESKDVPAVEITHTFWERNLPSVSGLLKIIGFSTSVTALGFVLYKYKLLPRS
pIC50 field: float, defined as -log10 of concentration (mol/L).

{"columns": ["Compound", "pIC50"],
 "data": [
  ["CN[C@H](C)Cc1ccc2occc2c1", 5.40]
]}

What pIC50 value was documented for this compound, CN[C@H](C)Cc1ccc2ccoc2c1 ?
5.67

What do you get for CN[C@@H](C)Cc1ccc2ccoc2c1 ?
5.27

What do you get for CC[C@@H](Cc1ccc2occc2c1)NC (stereo in doubt) ?
5.58

What do you get for CN[C@@H](C)Cc1ccc2occc2c1 ?
5.89

###

# Measurement Target: DAT (Homo sapiens (Human))
# Test Name: hDAT release assay in CHO cells ([3H]dopamine)
# Conditions Used: EC50 DAT (Mean ± SEM, nM), CHO cells expressing hDAT
Assay Metric: EC50 (nM)
Numbers only; they are read as nM.

Test system DAT (Homo sapiens (Human)); read-out EC50; what value for CN[C@H](C)Cc1ccc2occc2c1 [Compound R-5-MAPB] ?
1950

###

# Measurement Target: 5-HT1BR (Homo sapiens (Human), UniProt P28222)
# Test Name: 5-HT1BR cAMP secondary messenger agonist assay (HitHunter, CHO-K1)
# Assay type: cell-based
Where a name gives a salt, the structure may show the parent alone.
Assay Metric: Hill Coef.
// return a plain number; no unit text

{"columns": ["Compound", "Measurement Target", "Measurement"],
 "data": [
  ["CCC(NC)C(=O)c1ccc2occc2c1 (racemic) [rac-BK-5-MBPB, hydrochloride]", "5-HT1BR (Homo sapiens (Human), UniProt P28222)", 1.01],
  ["CNC(C)C(=O)c1ccc2occc2c1 (racemic) [rac-BK-5-MAPB, hydrochloride]", "5-HT1BR (Homo sapiens (Human), UniProt P28222)", 0.91],
  ["CCC(NC)C(=O)c1ccc2occc2c1 (single isomer, unassigned; (-)) [(−)-BK-5-MBPB]", "5-HT1BR (Homo sapiens (Human), UniProt P28222)", 1.6241]
]}

Then this compound:
What Hill Coef. value was documented for this compound, CNC(C)C(=O)c1ccc2occc2c1 (single isomer, unassigned; (+)) [(+)-BK-5-MAPB] ?
1.05

###

# Measurement Target: UniProt P31652
# Test Name: Rat synaptosome SERT [3H]5-HT uptake inhibition assay
# Conditions Used: Inhibition of [3H]5-HT Uptake at SERT IC50 (nM), 5 nM [3H]5-HT
Listed here: items and their measured IC50.
Numbers only; they are read as nM.

{"columns": ["Molecule", "Measurement Target", "IC50, nM"],
 "data": [
  ["CN[C@@H](C)Cc1ccc2ccoc2c1 [Compound S-6-MAPB]", "UniProt P31652", 90.9],
  ["CNC(C)C(=O)c1ccc2ccoc2c1 (single isomer, unassigned; (+)) [(+)-BK-6-MAPB]", "UniProt P31652", 5470],
  ["CN[C@H](C)Cc1ccc2occc2c1 [Compound R-5-MAPB]", "UniProt P31652", 150],
  ["CC[C@@H](Cc1ccc2occc2c1)NC (stereo in doubt) [Compound S-5-MBPB]", "UniProt P31652", 124],
  ["CNC(C)C(=O)c1ccc2occc2c1 (single isomer, unassigned; (-)) [(−)-BK-5-MAPB]", "UniProt P31652", 284]
]}

Then this molecule:
What IC50 value was documented for this molecule, CNC(C)C(=O)c1ccc2occc2c1 (single isomer, unassigned; (+)) [(+)-BK-5-MAPB] ?
2090

###

# Measurement Target: 5-HT2A receptors (Homo sapiens (Human))
# Test Name: 5-HT2A agonist and antagonist calcium assay (Calcium NWPLUS, FLIPR)
Assay Metric: EC50 (µM)
Numbers only; they are read as µM.

{"columns": ["Compound", "Result Units", "EC50"],
 "data": [
  ["CN[C@H](C)Cc1ccc2ccoc2c1 [Compound R-6-MAPB]", "µM", 4.62]
]}

Then this compound:
What EC50 value was documented for this compound, CN[C@H](C)Cc1ccc2occc2c1 [Compound R-5-MAPB] ?
2.4

###

Listed here: items and their measured log10 of IC50.
# Measurement Target: serotonin (5-HT) transporter (SERT) (Rattus norvegicus (Rat))
# Test Name: Rat synaptosome SERT [3H]5-HT uptake inhibition assay
# Conditions Used: Inhibition of [3H]5-HT Uptake at SERT IC50 (nM), 5 nM [3H]5-HT
Values are log10 of IC50 in nM.

Some compounds with known log10 of IC50 results, for comparison:
{"columns": ["Compound", "log10 of IC50"],
 "data": [
  ["CN[C@H](C)Cc1ccc2ccoc2c1 [Compound R-6-MAPB]", 2.79],
  ["CN[C@@H](C)Cc1ccc2occc2c1 [Compound S-5-MAPB]", 1.78],
  ["CNC(C)C(=O)c1ccc2ccoc2c1 (single isomer, unassigned; (-)) [(−)-BK-6-MAPB]", 2.44],
  ["CC[C@H](Cc1ccc2occc2c1)NC (stereo in doubt) [Compound R-5-MBPB]", 2.33]
]}

What log10 of IC50 value was documented for this compound, CNC(C)Cc1ccc2c(c1)OCO2 (centres unmarked) [MDMA] ?
2.58

These measurements were taken from patent US11767305B2.
